Below, each of the compounds is paired with its reported cell viability value.
Tested on: SEM cells
Experiment: cell viability relative to DMSO control; higher = less cytotoxic
Settings: HPLM + 10% dialyzed FBS; 48 h; 0.00234 µM
Output spec: scalar in %, unitless text.

As a guide, the following entries are already answered.
compound_string	data_value
CC[C@]1(O)C[C@H]2CN(CCC3=C([NH]C4=C3C=CC=C4)[C@@](C2)(C(=O)OC)C5=CC6=C(C=C5OC)N(C=O)[C@H]7[C@](O)([C@H](OC(C)=O)[C@]8(CC)\C=C/C[N@@]9CC[C@]67[C@H]89)C(=O)OC)C1	104
COc1cc2nccc(Oc3ccc(NC(=O)Nc4cc(C)on4)c(Cl)c3)c2cc1OC	116

Note: attention shifts to another entry.
query: Bench note: what cell viability did O=C1NC(=O)[C@@H](c2cn3c4c(cccc24)CCC3)[C@@H]1c1c[nH]c2ccccc12 show?
result: 98.3
